Study system: hNav 1.7 (Homo sapiens (Human))
Method: Electrophysiological evaluation, automated patch clamp IonWorks Quattro (Population Patch Clamp mode)
Applied conditions: HEK293A cells stably expressing hNav 1.7/β1/β2; response to second depolarization pulse, pre-pulse potential set to V1/2; read-out: hNav1.7 IC50
Assignment: determine reported pIC50 for the given molecules.
Give bare numbers, as −log10 of the molar value.

Examples from the recorded data:
Molecule: Cn1nccc1[C@@H]1CCC[C@H]1Oc1ccc(S(=O)(=O)Nc2ccncn2)c(F)c1
Study system: hNav 1.7 (Homo sapiens (Human))
Endpoint result: 4.04
--
Molecule: CO[C@@H]1C[C@H](Oc2cc(F)c(S(=O)(=O)Nc3ccncn3)cc2F)[C@@H](c2ccnn2C)C1 (relative stereo)
Study system: hNav 1.7 (Homo sapiens (Human))
Endpoint result: 6.57
--
Molecule: Cn1nccc1[C@H]1CC(F)(F)C[C@@H]1Oc1ccc(S(=O)(=O)Nc2ccncn2)c(F)c1F (relative stereo)
Study system: hNav 1.7 (Homo sapiens (Human))
Endpoint result: 6.70

Dear reader, for each entry below, please note its pIC50.
1. Cc1cc(S(=O)(=O)Nc2ccncn2)ccc1O[C@H]1CCCCC[C@@H]1c1ccnn1C (relative stereo)
2. CCn1nccc1[C@H]1CCC[C@@H]1Oc1ccc(S(=O)(=O)Nc2ccncn2)c(F)c1F [Example 119]
3. O=S(=O)(Nc1ccncn1)c1cc(F)c(O[C@H]2CCCC[C@@H]2c2ccnnc2)cc1F (relative stereo)
4. Nc1n[nH]cc1[C@H]1CCCC[C@@H]1Oc1cc(F)c(S(=O)(=O)Nc2ccncn2)cc1F (relative stereo)
5. O=S(=O)(Nc1ccncn1)c1cc(F)c(O[C@H]2CCCC[C@@H]2c2ccn[nH]2)cc1F (relative stereo)

[out]
1: 7.12; 2: 7.00; 3: 6.48; 4: 6.60; 5: 6.28

====

Study system: hNav 1.7 (Homo sapiens (Human), UniProt Q15858)
Sequence (Q15858 whole entry): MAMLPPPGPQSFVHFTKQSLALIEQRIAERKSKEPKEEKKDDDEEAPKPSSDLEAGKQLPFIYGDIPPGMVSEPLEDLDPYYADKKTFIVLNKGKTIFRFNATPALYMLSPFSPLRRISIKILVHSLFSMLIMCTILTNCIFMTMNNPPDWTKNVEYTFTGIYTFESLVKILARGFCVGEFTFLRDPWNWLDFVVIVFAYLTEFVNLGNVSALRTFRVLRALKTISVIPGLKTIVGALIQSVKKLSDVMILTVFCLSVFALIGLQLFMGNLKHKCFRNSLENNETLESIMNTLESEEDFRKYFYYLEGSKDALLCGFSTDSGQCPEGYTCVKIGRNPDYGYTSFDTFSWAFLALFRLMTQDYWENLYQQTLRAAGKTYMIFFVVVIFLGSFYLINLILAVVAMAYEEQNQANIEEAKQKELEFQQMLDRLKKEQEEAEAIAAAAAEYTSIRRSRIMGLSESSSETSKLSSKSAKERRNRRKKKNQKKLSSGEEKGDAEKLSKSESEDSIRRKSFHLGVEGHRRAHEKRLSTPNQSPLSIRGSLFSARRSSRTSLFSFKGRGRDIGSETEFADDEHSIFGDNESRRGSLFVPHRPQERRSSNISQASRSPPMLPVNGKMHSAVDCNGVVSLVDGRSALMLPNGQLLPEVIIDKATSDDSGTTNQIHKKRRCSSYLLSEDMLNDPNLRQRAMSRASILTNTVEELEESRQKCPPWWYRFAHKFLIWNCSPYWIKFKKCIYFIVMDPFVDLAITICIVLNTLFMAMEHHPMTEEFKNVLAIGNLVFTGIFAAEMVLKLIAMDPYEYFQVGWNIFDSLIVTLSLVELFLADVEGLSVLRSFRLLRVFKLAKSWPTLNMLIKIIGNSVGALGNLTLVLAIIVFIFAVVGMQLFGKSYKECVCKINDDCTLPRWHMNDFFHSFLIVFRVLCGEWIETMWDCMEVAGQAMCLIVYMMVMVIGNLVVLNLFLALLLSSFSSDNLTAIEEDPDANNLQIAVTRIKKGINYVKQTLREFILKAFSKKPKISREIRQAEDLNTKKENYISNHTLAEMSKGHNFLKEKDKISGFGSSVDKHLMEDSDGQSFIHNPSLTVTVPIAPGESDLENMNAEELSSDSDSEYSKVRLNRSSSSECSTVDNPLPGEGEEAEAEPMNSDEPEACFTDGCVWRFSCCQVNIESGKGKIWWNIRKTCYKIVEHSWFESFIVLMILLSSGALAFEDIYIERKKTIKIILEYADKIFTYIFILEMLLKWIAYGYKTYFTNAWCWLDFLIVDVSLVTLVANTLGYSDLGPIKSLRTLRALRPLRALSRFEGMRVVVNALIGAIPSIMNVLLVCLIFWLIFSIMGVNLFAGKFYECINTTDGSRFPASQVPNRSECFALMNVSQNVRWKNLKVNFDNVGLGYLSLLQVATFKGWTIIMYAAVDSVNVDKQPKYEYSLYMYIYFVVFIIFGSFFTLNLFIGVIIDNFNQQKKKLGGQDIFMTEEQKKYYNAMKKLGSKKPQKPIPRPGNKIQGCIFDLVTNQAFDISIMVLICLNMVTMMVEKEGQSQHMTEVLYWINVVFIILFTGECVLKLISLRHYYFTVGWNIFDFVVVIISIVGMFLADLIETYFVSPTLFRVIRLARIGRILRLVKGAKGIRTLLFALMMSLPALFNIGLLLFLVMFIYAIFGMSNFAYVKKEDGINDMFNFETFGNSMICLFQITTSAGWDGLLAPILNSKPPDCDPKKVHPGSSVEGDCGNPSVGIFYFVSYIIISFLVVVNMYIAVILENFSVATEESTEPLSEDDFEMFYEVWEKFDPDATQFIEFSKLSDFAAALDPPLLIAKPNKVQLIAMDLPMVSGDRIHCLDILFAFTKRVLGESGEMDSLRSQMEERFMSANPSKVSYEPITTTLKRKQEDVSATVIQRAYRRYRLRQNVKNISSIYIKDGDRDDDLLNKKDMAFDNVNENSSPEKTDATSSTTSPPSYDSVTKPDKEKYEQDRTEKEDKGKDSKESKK
Sequence (Q07699 19-218 partner): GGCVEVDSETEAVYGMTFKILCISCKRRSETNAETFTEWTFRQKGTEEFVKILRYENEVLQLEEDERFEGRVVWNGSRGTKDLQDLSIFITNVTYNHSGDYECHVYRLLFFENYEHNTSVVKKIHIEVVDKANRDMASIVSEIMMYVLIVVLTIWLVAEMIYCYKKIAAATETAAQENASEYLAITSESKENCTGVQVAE
Sequence (O60939 30-215 partner): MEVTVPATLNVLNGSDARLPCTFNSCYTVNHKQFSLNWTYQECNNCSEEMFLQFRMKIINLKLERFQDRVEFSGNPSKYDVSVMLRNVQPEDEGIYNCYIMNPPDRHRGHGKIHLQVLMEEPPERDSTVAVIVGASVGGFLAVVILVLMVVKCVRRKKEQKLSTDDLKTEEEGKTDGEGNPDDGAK
Method: Electrophysiological evaluation, automated patch clamp IonWorks Quattro (Population Patch Clamp mode)
Applied conditions: HEK293A cells stably expressing hNav 1.7/β1/β2; response to second depolarization pulse, pre-pulse potential set to V1/2; read-out: hNav1.7 IC50
Exam item: assign TRUE to entries whose IC50 is below 60 nM and FALSE to entries at or above 60 nM. Note that a value of exactly 60 nM receives FALSE.

Worked examples, 2 compounds total:
Compound: Cc1cc(S(=O)(=O)Nc2ccncn2)c(F)cc1O[C@H]1CC(F)(F)C[C@@H]1c1ccnn1C (relative stereo)
Study system: hNav 1.7 (Homo sapiens (Human), UniProt Q15858)
Label: TRUE

Compound: Cc1cc(S(=O)(=O)Nc2ccncn2)ccc1O[C@H]1CCCC[C@@H]1c1ccnn1C (relative stereo)
Study system: hNav 1.7 (Homo sapiens (Human), UniProt Q15858)
Label: TRUE

Consider now this further compound.
[in] Is IC50 strictly under 60 nM for the entry Cn1nccc1[C@H]1CCC[C@@H]1Oc1cc(Cl)c(S(=O)(=O)Nc2ccncn2)cc1F (relative stereo) ?
[out] FALSE

====

Study system: hNav 1.7 (Homo sapiens (Human))
Method: Electrophysiological evaluation, automated patch clamp IonWorks Quattro (Population Patch Clamp mode)
Applied conditions: HEK293A cells stably expressing hNav 1.7/β1/β2; response to second depolarization pulse, pre-pulse potential set to V1/2; read-out: hNav1.7 IC50
Readout name: IC50 (nM)
Give bare numbers, in nM.

Examples from the recorded data:
Compound: Cn1nccc1[C@H]1C[C@@H](F)C[C@@H]1Oc1cc(F)c(S(=O)(=O)Nc2ccncn2)cc1F (relative stereo)
IC50 [nM]: 270
//
Compound: Cn1nccc1[C@H]1CCC[C@@H]1Oc1ccc(S(=O)(=O)Nc2nccs2)cc1F (relative stereo)
IC50 [nM]: 230
//
Compound: Cn1nccc1[C@H]1CCC(F)(F)C[C@@H]1Oc1cc(F)c(S(=O)(=O)Nc2nncs2)cc1Cl (relative stereo)
IC50 [nM]: 34

Dear reader, for each entry below, please note its IC50.
1. Cn1nccc1[C@H]1CC(F)(F)C[C@@H]1Oc1cc(F)c(S(=O)(=O)Nc2ccncn2)c(F)c1 (relative stereo)
2. O=S(=O)(Nc1ccncn1)c1cc(Cl)c(O[C@H]2CCC[C@@H]2c2ccn[nH]2)cc1F (relative stereo) [Example 140]
3. Cn1nccc1[C@H]1CC(F)(F)CC[C@@H]1Oc1cc(F)c(S(=O)(=O)Nc2ccncn2)cc1Cl (relative stereo)
4. Cn1nccc1[C@H]1CCC[C@@H]1Oc1cc(F)c(S(=O)(=O)Nc2ccnc(F)n2)cc1F (relative stereo)
5. O=S(=O)(Nc1ccncn1)c1cc(Cl)c(O[C@H]2CCCC[C@@H]2c2ccn[nH]2)cc1F

[out]
1. 51
2. 34
3. 59
4. 23
5. 28

Dear reader, for each entry below, please note its IC50.
1. Cn1nccc1[C@H]1CCCCC[C@@H]1Oc1ccc(S(=O)(=O)Nc2ccncn2)cc1C#N (relative stereo)
2. Cn1nccc1[C@H]1CCCC[C@@H]1Oc1ccc(S(=O)(=O)Nc2ccncn2)c(F)c1 (relative stereo)
3. Cc1cc(S(=O)(=O)Nc2ccncn2)c(F)cc1O[C@H]1CCC[C@@H]1c1ccn[nH]1 [Example 148]
4. Cc1c(O[C@H]2CC(F)(F)CC[C@@H]2c2ccnn2C)ccc(S(=O)(=O)Nc2ccncn2)c1F (relative stereo)
5. Cn1nccc1[C@H]1C[C@H](OCc2ccccc2)CC[C@@H]1Oc1cc(F)c(S(=O)(=O)Nc2ccncn2)cc1F (relative stereo)

[out]
1: 39; 2: 330; 3: 18; 4: 36; 5: 310
